assay: qHTS assay for small molecule agonists of the antioxidant response element (ARE) signaling pathway - cell viability counter screen (AID 743203); details: ARE-bla HepG2 viability, CellTiter-Glo luminescence, 16 h; series mostly up to 73.3 µM; further: on the % scale 0 is the no-effect control and ±100 the full control effect; nearly all actives have a fitted effect of over 55% in size
Results filed as inconclusive are left out. Calls of active or inactive are those of the source. The call rests on the fitted dose curve.
Use one of these outcomes when replying: t for active, f for inactive

[[record]]
molecule = "N#CCNCC#N"
cat = "f"


Inquiry: Answer briefly: the call reported for `Fc1cc(Br)ccc1CBr` in this assay.
Reply text: f

Inquiry: Answer briefly: the call reported for C(CCOCC1CO1)COCC1CO1 (stereo not drawn) in this assay.
Reply text: f

Inquiry: Answer briefly: the call reported for `CN1C(=S)CN=C(c2ccccc2)c2cc(Cl)ccc21` in this assay.
Reply text: f

Inquiry: Answer briefly: the call reported for `[Cl][Sn]([Cl])([Cl])[Cl]` in this assay.
Reply text: f

Inquiry: Answer briefly: the call reported for O=C1OC(CCN2CCCCC2)OC1(c1ccccc1)c1ccccc1 (stereo not drawn) in this assay.
Reply text: f

Inquiry: Answer briefly: the call reported for `CC(N)=S` in this assay.
Reply text: f

Inquiry: Answer briefly: the call reported for `CCCCP(CCCC)CCCC` in this assay.
Reply text: f

====

assay: qHTS assay for identifying genotoxic compounds that show differential cytotoxicity against isogenic chicken DT40 cell lines with known DNA damage response pathways - Rad54/Ku70 mutant cell line (AID 743015); conditions: DT40 Rad54/Ku70 mutant viability, CellTiter-Glo, 40 h; series mostly up to 66.8 µM; further: nearly all actives have a fitted effect of over 60% in size
Records with an inconclusive call do not appear. Calls of active or inactive are those of the source. Calls come from the whole dose curve; as a rule, active = well fitted cell-killing curve with a large enough effect in the repeat runs; inconclusive = weak or mixed curves; inactive = no such curve, though single readings can be large or run the other way.
Use one of these outcomes when replying: active, inactive

[[record]]
compound = "CCOP(=S)(OCC)SCSc1ccc(Cl)cc1"
cat = "inactive"

[[record]]
compound = "CC(C)(C)C(=O)C(Oc1ccc(Cl)cc1)n1cncn1 (stereo unspecified)"
cat = "active"

[[record]]
compound = "C[N+](C)=CCl"
cat = "inactive"

[[record]]
compound = "c1coc(-c2nc3ccccc3[nH]2)c1"
cat = "active"

[[record]]
compound = "COC(=O)c1c(C(F)F)nc(C(F)(F)F)c(C2=NCCS2)c1CC(C)C"
cat = "active"

[[record]]
compound = "Cc1coc2c1CCC(C)C2 (stereo unspecified)"
cat = "inactive"

[[record]]
compound = "C[C@@H]1CN(C2CCC(C#N)(c3ccc(F)cc3)CC2)CC[C@]1(C(=O)O)c1ccccc1 (stereo partly specified)"
cat = "inactive"

[[record]]
compound = "CC(CCc1ccccc1)NC(C)C(O)c1ccc(O)cc1 (stereo unspecified)"
cat = "inactive"

[[record]]
compound = "COc1cccc(C(=O)NN(C(=O)c2cc(C)cc(C)c2)C(C)(C)C)c1C"
cat = "active"

[[record]]
compound = "Nc1cnn(-c2ccccc2)c(=O)c1Cl"
cat = "inactive"


Note: attention shifts to another entry.
Inquiry: Answer briefly: the call reported for CC(COc1ccc(Oc2ccccc2)cc1)Oc1ccccn1 (stereo unspecified) in this assay.
Reply text: active

====

biological target: Acetylcholinesterase (Homo sapiens); experiment: Acetylcholinesterase (AChE) small molecule antagonists: colormetric cell-based qHTS assay (AID 1347395); details: SH-SY5Y cells AChE activity, colorimetric (Ellman); series mostly up to 115 µM; further: nearly all actives have a fitted effect of over 30% in size
Results filed as inconclusive are left out. Activity calls are given as the source filed them. Calls follow the shape of the full dose curve.
Use one of these outcomes when replying: active, inactive

[[record]]
compound = "CCCSP(=S)(OCC)Oc1ccc(Cl)cc1Cl (stereo not given)"
cat = "inactive"

[[record]]
compound = "CCOC(=O)C1(c2ccccc2)CCN(CCc2ccc(N)cc2)CC1"
cat = "inactive"

[[record]]
compound = "CCC(=O)C(CCN(C)C)(c1ccccc1)c1ccccc1"
cat = "inactive"


Inquiry: Answer briefly: the call reported for `COc1cc2c(cc1OC)[C@@]13CCN4CC5=CCO[C@H]6CC(=O)N2[C@H]1[C@H]6[C@H]5C[C@H]43` in this assay.
Reply text: inactive

Inquiry: Answer briefly: the call reported for `CCOC(=O)CP(=O)(OCC)OCC` in this assay.
Reply text: inactive

Inquiry: Answer briefly: the call reported for CC(=O)CC(c1ccc(Cl)cc1)c1c(O)c2ccccc2oc1=O (stereo not given) in this assay.
Reply text: inactive

Inquiry: Answer briefly: the call reported for `Cc1cc(C)nc(Nc2ccccc2)n1` in this assay.
Reply text: inactive

Inquiry: Answer briefly: the call reported for `COc1cc(OC)nc(Oc2cccc(Oc3nc(OC)cc(OC)n3)c2C(=O)O)n1` in this assay.
Reply text: inactive

Inquiry: Answer briefly: the call reported for `Fc1cc(Br)ccc1CBr` in this assay.
Reply text: inactive

Inquiry: Answer briefly: the call reported for O=CNC(N1CCN(C(NC=O)C(Cl)(Cl)Cl)CC1)C(Cl)(Cl)Cl (stereo not given) in this assay.
Reply text: inactive

Inquiry: Answer briefly: the call reported for `NC(=O)O` in this assay.
Reply text: inactive

Inquiry: Answer briefly: the call reported for `C[C@]1(O)CC[C@H]2[C@@H]3CCC4=CC(=O)CC[C@]4(C)[C@@]3(F)[C@@H](O)C[C@@]21C` in this assay.
Reply text: inactive

Inquiry: Answer briefly: the call reported for CC(Oc1ccc(Oc2ncc(C(F)(F)F)cc2Cl)cc1)C(=O)O (stereo not given) in this assay.
Reply text: inactive

Inquiry: Answer briefly: the call reported for CCCSP(=O)(OCC)Oc1ccc(Br)cc1Cl (stereo not given) in this assay.
Reply text: active

Inquiry: Answer briefly: the call reported for `COc1cccc2c1cc([N+](=O)[O-])c1c(C(=O)O)cc3c(c12)OCO3` in this assay.
Reply text: inactive

====

assay: qHTS assay to identify small molecule agonists of the estrogen related receptor (ERR) signaling pathway from Tox21 library (AID 1224849); conditions: ERR reporter cell line, ONE-Glo luciferase, 18 h; at 92.4 µM (top of the series) unless noted; further: on the % scale 0 is the no-effect control and ±100 the full control effect; nearly all actives have a fitted effect of over 15% in size
Active and inactive are the calls of the source. Calls follow the shape of the full dose curve.
Recorded activity change, positive = activation values for a group of compounds are listed next.

Illustrative cases are given below, each with its answer.
[[record]]
smiles_repr = "CN(C)CCc1ccc(O)cc1"
test_value = "5.13% [at 42.5 µM] (inactive)"

[[record]]
smiles_repr = "COc1cc(C[C@@H](C)N)c(OC)cc1C"
test_value = "-3.22% (inactive)"


The record that follows has no activity change, positive = activation shown yet.
Record summary for `CC(C)COP(=O)(OCC(C)C)OCC(C)C` : reported activity change, positive = activation = -2.2% (inactive)

====

tested on: thyroid hormone receptor (rat, GH3 cells); test: qHTS assay to identify small molecule agonists of the thyroid receptor (TR) signaling pathway (AID 743066); details: GH3.TRE-Luc cells, TR agonist luciferase, 24 h; series mostly up to 83.9 µM
Records with an inconclusive call do not appear. Calls of active or inactive are those of the source. Calls follow the shape of the full dose curve.
Use one of these outcomes when replying: active, inactive

Consider the worked cases shown below.
[[record]]
compound = "CCOP(=S)(Oc1cnc(C(C)(C)C)nc1)OC(C)C (stereo unspecified)"
cat = "inactive"

[[record]]
compound = "CCOC(=O)CP(=O)(OCC)OCC"
cat = "inactive"

[[record]]
compound = "CC1(C)COP(Oc2ccccc2)OC1"
cat = "active"

[[record]]
compound = "CC(=O)[C@H]1CC[C@H]2[C@@H]3CC[C@H]4C[C@H](O)CC[C@]4(C)[C@H]3C(=O)C[C@]12C"
cat = "inactive"

[[record]]
compound = "CNC(=O)Oc1c(C(C)(C)C)cc(C)cc1C(C)(C)C"
cat = "inactive"

[[record]]
compound = "O=C(O)c1cccc(Cl)c1"
cat = "inactive"

[[record]]
compound = "C=C(C)[C@@H]1CC=C(C=O)CC1"
cat = "inactive"

[[record]]
compound = "[Cl][Sn]([Cl])([Cl])[Cl]"
cat = "inactive"


Inquiry: Answer briefly: the call reported for `O=NN1CCN(N=O)CC1` in this assay.
Reply text: inactive

Inquiry: Answer briefly: the call reported for `NC(=O)c1cc([N+](=O)[O-])cc([N+](=O)[O-])c1` in this assay.
Reply text: inactive

Inquiry: Answer briefly: the call reported for `CCc1cc2c(s1)-n1c(C)nnc1CN=C2c1ccccc1Cl` in this assay.
Reply text: inactive

Inquiry: Answer briefly: the call reported for `N#Cc1c(Cl)cccc1Cl` in this assay.
Reply text: inactive

Inquiry: Answer briefly: the call reported for O=CNC(N1CCN(C(NC=O)C(Cl)(Cl)Cl)CC1)C(Cl)(Cl)Cl (stereo unspecified) in this assay.
Reply text: inactive

====

experiment: A CellTox Green Cytotoxicity Assay to monitor cytotoxicity in HEK293 cells - 32 hour (AID 1224881); conditions: CellTox Green fluorescence; series mostly up to 76.8 µM; further: on the % scale 0 is the no-effect control and ±100 the full control effect; nearly all actives have a fitted effect of over 40% in size
Inconclusive results are not listed. Calls of active or inactive are those of the source. Calls come from the whole dose curve; as a rule, active = well fitted activation curve with a large enough effect in the repeat runs; inconclusive = weak or mixed curves; inactive = flat fitted curve, though single readings scatter.
Use one of these outcomes when replying: active, inactive

Consider the worked cases shown below.
[[record]]
compound = "ClC(Cl)(Cl)C(Cl)(Cl)Cl"
cat = "inactive"

[[record]]
compound = "CC1CCC(=O)O1 (centres undefined)"
cat = "inactive"

[[record]]
compound = "NC1=NC(=O)C(c2ccccc2)O1 (centres undefined)"
cat = "inactive"


Inquiry: Answer briefly: the call reported for `CCCCC(=O)Cl` in this assay.
Reply text: inactive

Inquiry: Answer briefly: the call reported for `Cc1cc(C)c(C(=O)P(=O)(C(=O)c2c(C)cc(C)cc2C)c2ccccc2)c(C)c1` in this assay.
Reply text: inactive

Each recorded value in this set is attributed to PubChem BioAssay (Tox21).
